Hey, just so you know, these numbers are from patent US20050119461A1.

test_system: I2-receptor
test_method_notes: I2-receptor binding, [3H]-idazoxan displacement in rat brain homogenates
measurement_context: rat brain homogenates, Table 3; read-out: Receptor Affinities (nM) I2

| compound | Ki |
| --- | --- |
| C1CCC(C(NC2=NCCO2)C2CCCCC2)CC1 | 3800 nM |
| C[C@H](NC1=NCCO1)C1CCCCC1 [(S)-(+)-O504] | 707 nM |
| c1ccc2c(c1)OCC(C1=NCCN1)O2 (stereo not drawn) | 2.3 nM |
| c1ccc2nc(C3=NCCN3)ccc2c1 [BU-224, 2-(4,5-dihydroimidaz-2-yl)quinoline] | 0.9 nM |
| CCC1CCCC(CC)C1NC1=NCCO1 (stereo not drawn) | 6900 nM |
| C[C@@H](NC1=NCCO1)C1CCCCC1 [(R)-(−)-O504] | 56 nM |
| c1ccc(C(NC2=NCCO2)c2ccccc2)cc1 | 1900 nM |
| COC1(C2=NCCN2)COc2ccccc2O1 (stereo not drawn) | 24400 nM |
| C1COC(NC(C2CC2)C2CC2)=N1 | 36 nM |

----------
System: Ox receptor
test_method_notes: Ox receptor binding, [3H]-rilmenidine displacement in human brain homogenates
measurement_context: human brain homogenates; >1 = selectivity for the Ox receptor
property_measured: Selectivity Ox/I2

| molecule | test_system | value_observed |
| --- | --- | --- |
| CCC1CCCC(CC)C1NC1=NCCO1 (stereo not shown) [Compound O501] | Ox receptor | 239 |
| COC1(C2=NCCN2)COc2ccccc2O1 (stereo not shown) [Methoxyidazoxan] | Ox receptor | 1 |
| C1CCC(C(NC2=NCCO2)C2CCCCC2)CC1 [Compound O503] | Ox receptor | 69 |
| C[C@@H](NC1=NCCO1)C1CCCCC1 [(R)-(−)-O504] | Ox receptor | 9 |
| FC(F)(F)C(NC1=NCCO1)C1CC1 (single isomer, unassigned; (+)) [(+)-S8349] | Ox receptor | 49 |
| FC(F)(F)C(NC1=NCCO1)C1CC1 (single isomer, unassigned; (-)) [(−)-S8350] | Ox receptor | 32 |
| CCC1CCCC(C)C1NC1=NCCO1 (stereo not shown) [BAY-A6781] | Ox receptor | 38 |
| C1COC(NC(C2CC2)C2CC2)=N1 [Rilmenidine] | Ox receptor | 13 |
| c1ccc(C(NC2=NCCO2)c2ccccc2)cc1 [Compound O502] | Ox receptor | 3 |
| c1ccc2c(c1)OCC(C1=NCCN1)O2 (stereo not shown) [Idazoxan, 2-(1,4-benzodioxan)-imidazoline] | Ox receptor | 0.0008 |
| C[C@H](NC1=NCCO1)c1cccc2ccccc12 [(S)-(−)-O506] | Ox receptor | 77 |
| c1ccc2nc(C3=NCCN3)ccc2c1 [BU-224, 2-(4,5-dihydroimidaz-2-yl)quinoline] | Ox receptor | 0.0002 |
| C[C@H](NC1=NCCO1)C1CCCCC1 [(S)-(+)-O504] | Ox receptor | 12 |

----------
In this section, each of the compounds is paired with its reported Ki.
test_system: I2-receptor
test_method_notes: I2-receptor binding, [3H]-idazoxan displacement in human brain homogenates
measurement_context: human brain homogenates, Table 5; read-out: Receptor Affinities (nM) I2
property_measured: Ki (nM)

| compound | value_observed |
| --- | --- |
| c1ccc(C(NC2=NCCO2)c2ccccc2)cc1 [Compound O502] | 686 |
| FC(F)(F)C(NC1=NCCO1)C1CC1 (single isomer, unassigned; (-)) [(−)-S8350] | 7700 |
| FC(F)(F)C(NC1=NCCO1)C1CC1 (single isomer, unassigned; (+)) [(+)-S8349] | 13000 |
